Test: in vitro
Type: in vitro ADME, human
Conditions: human, Caco-2, pH 8, Papp × 10^−4 (cm/s) (A→B)
Experimental Endpoint: Papp A→B at 180 min, 50 μg/mL (×10⁻⁶ cm/s)
Only the number, expressed in ×10⁻⁶ cm/s, is required.

Task: Provide one value: measured Papp A→B at 180 min, 50 μg/mL of O=C(/C=C/c1ccc(O)cc1)OC[C@H]1O[C@@H](Oc2c(-c3ccc(O)cc3)oc3cc(O)cc(O)c3c2=O)[C@H](O)[C@@H](O)[C@@H]1O [Tiliroside]
Result: 86

---

Assay: in vitro
Assay type: in vitro ADME, human
Settings: human, Caco-2, pH 6, Papp × 10^−4 (cm/s) (A→B)
Experimental Endpoint: Papp A→B at 180 min, 50 μg/mL (×10⁻⁶ cm/s)
Only the number, expressed in ×10⁻⁶ cm/s, is required.

Task: Provide one value: measured Papp A→B at 180 min, 50 μg/mL of O=C(/C=C/c1ccc(O)cc1)OC[C@H]1O[C@@H](Oc2c(-c3ccc(O)cc3)oc3cc(O)cc(O)c3c2=O)[C@H](O)[C@@H](O)[C@@H]1O [Tiliroside]
Result: 473
